target: T1, full-length beta-catenin (UniProt P35222 2-781, limits assumed)
T1 construct: mature; also called full-length ß-Catenin; β-catenin
T1 sequence (looked up): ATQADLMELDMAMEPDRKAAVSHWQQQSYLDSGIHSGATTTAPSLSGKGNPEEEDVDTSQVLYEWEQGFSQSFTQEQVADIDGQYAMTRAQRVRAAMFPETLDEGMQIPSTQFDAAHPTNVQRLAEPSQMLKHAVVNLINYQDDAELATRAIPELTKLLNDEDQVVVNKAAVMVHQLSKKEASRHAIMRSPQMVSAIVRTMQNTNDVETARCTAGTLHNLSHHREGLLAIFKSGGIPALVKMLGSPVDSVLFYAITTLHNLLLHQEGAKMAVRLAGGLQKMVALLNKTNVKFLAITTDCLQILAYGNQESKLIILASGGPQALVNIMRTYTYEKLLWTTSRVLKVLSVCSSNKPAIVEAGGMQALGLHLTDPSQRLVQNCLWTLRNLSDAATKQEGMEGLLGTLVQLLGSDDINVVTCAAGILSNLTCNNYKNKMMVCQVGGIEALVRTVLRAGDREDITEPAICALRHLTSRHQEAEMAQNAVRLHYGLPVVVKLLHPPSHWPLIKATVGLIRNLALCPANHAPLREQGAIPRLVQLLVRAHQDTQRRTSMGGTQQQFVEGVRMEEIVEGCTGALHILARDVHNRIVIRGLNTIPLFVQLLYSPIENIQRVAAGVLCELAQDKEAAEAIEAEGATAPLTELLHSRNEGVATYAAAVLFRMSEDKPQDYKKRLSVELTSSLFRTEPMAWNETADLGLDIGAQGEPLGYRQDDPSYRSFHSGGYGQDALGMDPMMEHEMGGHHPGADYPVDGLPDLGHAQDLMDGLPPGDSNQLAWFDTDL
experimentDescription: competition FP; NB = no binding detected
Numbered stars: 1 amine (or outer) side, 2 acyl side, 3 side chain; on linkers, the order of the positions; unused ones are H or OH. Bridge positions count the residues as written; N and C are the ends. Square brackets hold non-standard residues; d marks the D form. Primed or numbered codes have the meaning given here. MB(10) = Monomer B = PyrS, pyrrolidine stapling residue with allyl carbamate, (S)-3-amino-1-(allyloxycarbonyl)pyrrolidine-3-carboxylic acid, C=CCOC(=O)N1CC[C@@](N[*:1])(C(=O)[*:2])C1; MB(8) = Monomer B (PyrS), pyrrolidine stapling residue bearing N-allyl carbamate (Alloc), forms carbamate staple with R8 by ring-closing olefin metathesis, i to i+7; 2Pal = N[C@@H](Cc1ccccn1)C(=O)O; R8 = C=CCCCCCC[C@@](C)(N)C(=O)O
measure: binding result

Ac-A[R8]ILDA[2Pal]I[MB(8)]SVW-NH2 (staple 2-9; not fully specified; printed as Ac-A-R8-I-L-D-A-2pyr-I-MB-S-V-W-NH2) [FP0560c Isomer 2]
no binding
Ac-A[R8]ILDA[2Pal]I[MB(10)]AVW-NH2 (staple 2-9; not fully specified; printed as Ac-A-R8-I-L-D-A-2pyr-I-MB-A-V-W-NH2) [FP0554c Isomer 1]
no binding
